Value source: patent US7504426B2

target: human histamine H4 receptor (Homo sapiens); test: Binding assay on recombinant human histamine H4 receptor (3H-histamine displacement); details: read-out: Binding Assay Ki; repeated in the chemotaxis table
observed-property: Ki (µM)
Number in µM, nothing else.

*Q* Report the value of Ki obtained on human histamine H4 receptor (Homo sapiens) for O=C(c1nc2cc(Cl)ccc2[nH]1)N1CCNCC1 .
*A* 0.087

*Q* State Ki on human histamine H4 receptor (Homo sapiens). Entry: CN1CCN(C(=O)c2nc3cc(F)c(F)cc3[nH]2)CC1
*A* 0.028

*Q* Enter Ki (test system human histamine H4 receptor (Homo sapiens)) for CN1CCN(C(=O)c2nc3cc(Cl)ccc3[nH]2)CC1
*A* 0.025

*Q* Provide Ki, tested on human histamine H4 receptor (Homo sapiens), for Cc1ccc2[nH]c(C(=O)NC3CC4CCC(C3)N4C)nc2c1 (stereo not shown) .
*A* 0.613

====

target: human histamine H4 receptor (Homo sapiens, UniProt Q9H3N8); test: biochemical
Sequence (Q9H3N8 whole entry): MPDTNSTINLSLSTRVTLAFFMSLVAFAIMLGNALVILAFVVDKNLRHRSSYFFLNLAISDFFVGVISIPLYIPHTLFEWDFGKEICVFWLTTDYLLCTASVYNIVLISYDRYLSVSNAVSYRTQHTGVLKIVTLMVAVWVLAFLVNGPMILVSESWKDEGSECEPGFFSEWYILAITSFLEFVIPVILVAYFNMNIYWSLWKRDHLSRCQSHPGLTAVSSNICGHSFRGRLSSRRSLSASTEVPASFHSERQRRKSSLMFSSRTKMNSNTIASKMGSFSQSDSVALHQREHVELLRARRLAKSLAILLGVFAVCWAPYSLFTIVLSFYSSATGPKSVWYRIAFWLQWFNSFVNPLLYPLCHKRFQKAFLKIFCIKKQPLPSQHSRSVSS
observed-property: Ki
Form entry: enter the amount, then its unit.

*Q* Identify measured Ki associated with CN1CCN(C(=O)c2nc3cc(C(=O)c4ccccc4)ccc3[nH]2)CC1
*A* 8 µM

*Q* For the molecule CC1CN(C(=O)c2nc3cc(Cl)ccc3[nH]2)CCN1 (stereo not shown) , report Ki.
*A* 0.3 µM

*Q* Dear colleague, please send me the reported Ki for CN1CCCN(C(=O)c2nc3cc(F)c(Cl)cc3[nH]2)CC1 when you can.
*A* 1.3 µM

*Q* Please give measured Ki of the following entry: CCN1CCN(C(=O)c2nc3cc(F)c(F)cc3[nH]2)CC1
*A* 0.62 µM

====

Kindly supply the reported pKi values for the records listed here.
biological target: human histamine H4 receptor (Homo sapiens, UniProt Q9H3N8); test: biochemical
Please express pKi as -log10 of the molar concentration.

*Q* Name the recorded pKi of the item CN1CCCN(C(=O)c2nc3ccccc3[nH]2)CC1 in your answer.
*A* 5.85

*Q* Could you please provide reported pKi for Cc1cc2nc(C(=O)N3CCNCC3)[nH]c2cc1Cl ? Thanks!
*A* 6.00

*Q* Please indicate pKi recorded for Cc1cccc2[nH]c(C(=O)N3CCNC(C)C3)nc12 (stereo not shown)
*A* 6.81

*Q* Look up pKi of Cc1ccc2oc(C(=O)N3CCN(C)CC3)nc2c1 and report it.
*A* 5.89

*Q* Annotate the molecule CN1CCN(C(=O)c2nc3cc(Br)ccc3[nH]2)CC1 with its measured pKi.
*A* 7.29

*Q* Please give the documented pKi of CN1CCN(C(=O)c2nc3c(Cl)cccc3[nH]2)CC1
*A* 7.24

*Q* Please look at this molecule and report its pKi: CN1C2CCC1CC(NC(=O)c1nc3ccccc3[nH]1)C2 (stereo not shown)
*A* 7.05

*Q* Name the recorded pKi of the item CC1CN(C(=O)c2nc3cc(F)ccc3[nH]2)CCN1 (stereo not shown) in your answer.
*A* 6.34

*Q* Answer with reported pKi of Cc1ccc2[nH]c(C(=O)NC3CC4CCC(C3)N4C)nc2c1 (stereo not shown)
*A* 6.21

*Q* Give recorded pKi. CN1CCN(C(=O)c2nc3ccccc3s2)CC1
*A* 6.09

*Q* Note down pKi recorded for CCN1CCN(C(=O)c2nc3ccccc3[nH]2)CC1
*A* 6.31

*Q* Please supply the value of reported pKi for the item CN1C2CCC1CC(NC(=O)c1nc3cc(F)c(F)cc3[nH]1)C2 (stereo not shown)
*A* 6.42

*Q* Fill in reported pKi for this entry: CN1CCN(C(=O)c2nc3cc([N+](=O)[O-])ccc3[nH]2)CC1
*A* 6.80

*Q* Supply reported pKi belonging to this molecule: CCN1CCN(C(=O)c2nc3c(C)cccc3[nH]2)CC1
*A* 6.33

*Q* Give a short answer stating reported pKi for CC1CN(C(=O)c2nc3cc(F)c(F)cc3[nH]2)CCN1 (stereo not shown) .
*A* 6.45

*Q* Specify measured pKi for O=C(c1nc2cc(C(F)(F)F)ccc2[nH]1)N1CCNCC1 .
*A* 6.38

*Q* Determine its reported pKi: CN1CCN(C(=O)c2nc3cc(F)c(F)cc3[nH]2)CC1
*A* 7.55

*Q* Name the recorded pKi of the molecule listed here: Cc1cc2nc(C(=O)N3CCN(C)CC3)[nH]c2cc1Cl
*A* 6.65

*Q* Identify measured pKi corresponding to Cc1cccc2[nH]c(C(=O)N3CCNCC3)nc12
*A* 6.87
